In this section we review reported composite z-score values for a set of compounds.
Assay: small-molecule binders of probe aNOTCH3, primary screen, biochemical, small-molecule microarray, 635/667 nm fluorescence (AID 1120);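 also: probe is a biotin-tagged antibody raised against NOTCH3 rather than NOTCH3 protein; score merges spot fluorescence near 667 nm with spot signal to noise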
Settings: higher = more signal
measurement kind: composite z-score

C=CC[C@]12N=C(c3ccc(OCCCO)cc3)O[C@H]1c1ccccc1N(CCC)C2=O: 0.467
CN1C(=O)C2C=CC(C(O)c3cccs3)N(N(c3ccccc3)c3ccccc3)C2C1=O (stereo not given): 0.17
COc1ccc([Si](C)(C)[C@H]2[C@H](CCO)O[C@@]3(C(=O)N(Cc4ccccc4)c4ccc(NC(=O)[C@H](C)O)cc43)[C@@H]2C)cc1: 0.372
CC(C)c1ccc(NN2C(C(O)c3ccccc3)C=CC3C(=O)N(c4ccccc4)C(=O)C32)cc1 (stereo not given): 0.216
O=C(N1CCOCC1)[C@]1(CCS(=O)(=O)c2ccccc2)N=C(c2ccc(OCCCO)cc2)O[C@@H]1c1ccccc1: 0.149

====

Assay: HepG2 cell viability effects, profiling panel, calcein-AM fluorescence, 48 h, basal (AID 1164); also: test concentration not given here
Conditions: higher = more signal
measurement kind: z-score

COC(=O)C1=CC(c2ccc(CO)cc2)=CC(C2CC2)N(Cc2cc3c(cc2Br)OCO3)C=C1C(=O)OC (stereo unspecified): 0.522
C=CCOC(=O)[C@H]1[C@@H]2C(=O)O[C@@H](c3ccccc3)[C@@H](c3ccccc3)N2[C@@H](c2ccc(OCCOC(=O)[C@H]3C[C@H]4C(=O)NCC(=O)N4[C@H]3c3ccc(O)cc3)cc2)[C@]12C(=O)Nc1ccccc12: -1.05
COC(=O)C(CC#Cc1ccc2c(c1)[C@]1(C(=O)N2)[C@H](c2ccccc2OCCO)N2[C@H](c3ccccc3)[C@H](c3ccccc3)OC(=O)[C@H]2[C@@H]1C(=O)N1CCN(c2ncccn2)CC1)C(=O)OC: 0.496
CC1C2C(CCCO)=CC(C3C(=O)N(C(N)=O)C(=O)C23)N1Cc1cccc(OC(F)(F)F)c1 (stereo unspecified): 0.192
COC(=O)[C@@]1(Cc2ccccc2)[C@H]2c3cc(C(=O)N(C)C)n(CCF)c3C[C@H]2CN1C(=O)c1ccccc1: -0.561
O=C1O[C@H](c2ccccc2)[C@H](c2ccccc2)N2[C@H]1[C@@H](C(=O)Nc1nc3ccccc3s1)[C@]1(C(=O)Nc3ccccc31)[C@H]2c1ccccc1OCCO: -1.97

====

Target: Dickkopf-related protein 1 (Homo sapiens) (UniProt O94907)
Sequence (O94907 whole entry, looked up): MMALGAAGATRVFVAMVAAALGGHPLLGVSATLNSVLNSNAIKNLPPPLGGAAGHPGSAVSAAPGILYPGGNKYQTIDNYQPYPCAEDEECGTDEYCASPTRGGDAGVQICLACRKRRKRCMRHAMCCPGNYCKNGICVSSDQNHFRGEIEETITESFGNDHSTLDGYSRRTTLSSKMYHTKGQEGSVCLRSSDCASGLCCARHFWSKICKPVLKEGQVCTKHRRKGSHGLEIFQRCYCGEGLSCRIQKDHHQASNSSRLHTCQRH
Assay: DKK1 binders on small-molecule microarrays, primary screen, biochemical, small-molecule microarray, 635 nm fluorescence scan (AID 1106);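 also: score merges emission near 667 nm with signal to noise over three replicate slides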
Conditions: DKK1 binding, higher = more signal
In this section we review reported composite z-score values for a set of compounds.
measurement kind: composite z-score

CC(C)(C)OC(=O)N1[C@@H](C=C(Br)Br)COC1(C)C: 0.393
[N-]=[N+]=Nc1ccccc1C[C@]1(C(=O)N2CCCCC2)N=C(c2ccc(OCCCO)cc2)O[C@H]1c1ccccc1: 0.26
C=CC[C@]1(C(=O)NCC(O)CO)N=C(c2ccc(OCCCO)cc2)O[C@H]1c1ccccc1CN=[N+]=[N-] (some centres undefined): -0.471
O=C1NC(=O)C2C1C=CC(C(O)C(O)CO)N2Nc1ccccn1 (centres undefined): 0.173

====

System: Neuregulin-1 EGF-like domain
Assay: binders of neuregulin-1 EGF-like domain, primary screen, biochemical, small-molecule microarray, 635 nm fluorescence (AID 1081);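 also: binding of the protein to compounds printed on small-molecule microarray slides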
Details: small-molecule microarray binding, higher = more signal
Quick rule: composite z-score of at least 1 means class 1, below that means class 0.

C=C(COC)C(=O)CC[C@H](OC(C)=O)c1ccc(CO)o1: class 0
CC(=O)NCCCC[C@@H]1NC(=O)[C@H]2C[C@@H](C(=O)NCCCCCN)[C@@H](c3ccc(O)cc3)N2C1=O: class 1
CC(C)(C)OC(=O)CC[C@]1(C(=O)N2CCOCC2)COC(c2ccc(OCCCO)cc2)=N1: class 1
CCCC[C@@H](O)C1=C(C)Cn2c(=O)n(-c3ccccc3)c(=O)n2[C@H]1CO: class 0
COC(=O)C1=CC(CCCO)=CC(c2ccc(CN3CCCC3)cc2)N(C)C=C1C(=O)OC (stereo not given): class 1
C=CCOC(=O)[C@H]1[C@@H]2C(=O)O[C@@H](c3ccccc3)[C@@H](c3ccccc3)N2[C@@H](c2ccc(OCCOC(=O)[C@H]3C[C@H]4C(=O)NCC(=O)N4[C@H]3c3cccc(OCCO)c3)cc2)[C@]12C(=O)Nc1ccc(I)cc12: class 1
C=C(C(=O)CC[C@@H](OC(=O)c1ccccc1-c1ccccc1C(=O)O)c1cccc(OCCO)c1)C(C)C: class 0
COCCOC(=O)N1C(=O)[C@@]2(c3cc(C#CCC(C(=O)OC)C(=O)OC)ccc31)[C@H](c1ccc(O)cc1)N1[C@H](c3ccccc3)[C@H](c3ccccc3)OC(=O)[C@H]1[C@@H]2C(=O)N1CCc2cc(OC)c(OC)cc2C1: class 1
[N-]=[N+]=NCc1ccccc1[C@H]1OC(c2ccc(OCCCO)cc2)=N[C@@]1(Cc1ccccc1N=[N+]=[N-])C(=O)N1CCOCC1: class 1
COc1ccc(-c2cc3c(c(CCc4ccccc4)n2)[Si](C(C)C)(C(C)C)O[C@H]3c2ccccc2)cn1: class 0

Reference source: PubChem BioAssay
